Measured EC50 (read off the curve) accompanies every entry in the list below.
- target.entity: T1, human TNFR2 expressed on cells (Expi293 cells stably expressing huTNFR2) (human, UniProt P20333 23-461)
- T1 construct: whole, on cells; Also used here as the target of the Treg assay (native TNFR2 on human primary Treg cells); also called huTNFR2 expressed cells; Expi293-TNFR2 cells
- T1 sequence (looked up): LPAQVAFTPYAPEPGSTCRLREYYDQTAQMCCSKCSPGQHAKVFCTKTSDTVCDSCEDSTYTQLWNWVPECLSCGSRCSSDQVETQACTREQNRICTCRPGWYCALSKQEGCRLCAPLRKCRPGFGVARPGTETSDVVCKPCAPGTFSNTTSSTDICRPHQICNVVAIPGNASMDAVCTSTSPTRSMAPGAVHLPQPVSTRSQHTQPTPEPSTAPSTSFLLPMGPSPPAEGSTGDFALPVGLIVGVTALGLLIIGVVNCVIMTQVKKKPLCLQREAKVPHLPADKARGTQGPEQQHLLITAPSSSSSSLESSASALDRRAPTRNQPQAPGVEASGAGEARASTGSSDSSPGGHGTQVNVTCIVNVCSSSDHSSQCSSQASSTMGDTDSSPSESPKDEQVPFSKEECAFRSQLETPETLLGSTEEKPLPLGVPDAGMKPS
- experiment.summary: flow cytometry on Expi293 cells stably expressing huTNFR2, y axis TNFR2 binding (MFI)

binder	EC50 (read off the curve)
SB1901-72 humanized anti-TNFR2 antibody (antibody, V domains shown) VH: QVQLVQSGAEVKKPGASVKVSCKASGYTFTDDYIDWVRQATGQGLEWIGEIYPGSGNTYYNEKFKGRVTMTRDKSISTAYMELSSLRSEDTAVYYCARSQVYGKIAMDHWGQGTLVTVSS VL: DIVMTQSPDSLAVSLGERATINCRASESVDNSGNSFMHWYQQKPGQPPKLLIYRASNLESGVPDRFSGSGSRTDFTLTISSLQAEDVAVYYCQQSKEDPYTFGQGTKVEIK	~0.6 nM

-- ask Given the entry SB1901-74 (antibody, V domains shown, humanized version of 51B5; also called SB1901-74 humanized anti-TNFR2 antibody) VH: QVQLVQSGAEVKKPGASVKVSCKASGYTFTDDYIDWVRQATGQGLEWIGEIYPGSGNTYYNEKFKGRVTMTRNTAISTAYMELSSLRSEDTAVYYCARSQVYGKIAMDHWGQGTLVTVSS VL: DIVMTQSPDSLAVSLGERATINCRASESVDNSGNSFMHWYQQKPGQPPKLLIYRASNLESGVPDRFSGSGSRTDFTLTISSLQAEDVAVYYCQQSKEDPYTFGQGTKVEIK , report its measured EC50 (read off the curve).
-- reply ~0.6 nM

-- ask May I ask what EC50 (read off the curve) has been recorded for SB1901-80 humanized anti-TNFR2 antibody (antibody, V domains shown) VH: QVQLVQSGAEVKKPGASVKVSCKASGYTFTDDYIDWVRQAPGQGLEWIGEIYPGSGNTYYNEKFKGRVTMTRDTSTSTVYMELSSLRSEDTAVYYCARSQVYGKIAMDHWGQGTLVTVSS VL: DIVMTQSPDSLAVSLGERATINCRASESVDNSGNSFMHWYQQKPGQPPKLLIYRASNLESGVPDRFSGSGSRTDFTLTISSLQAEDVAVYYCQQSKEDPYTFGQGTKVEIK ?
-- reply ~0.6 nM

-- ask Look at this binder and give its reported EC50 (read off the curve). SB1901-78 (antibody, V domains shown, humanized version of 51B5; also called SB1901-78 humanized anti-TNFR2 antibody) VH: QVQLVQSGAEVKKPGASVKVSCKASGYTFTDDYIDWVRQATGQGLEWIGEIYPGSGNTYYNEKFKGRVTMTADKSISTAYMELSSLRSEDTAVYYCARSQVYGKIAMDHWGQGTLVTVSS VL: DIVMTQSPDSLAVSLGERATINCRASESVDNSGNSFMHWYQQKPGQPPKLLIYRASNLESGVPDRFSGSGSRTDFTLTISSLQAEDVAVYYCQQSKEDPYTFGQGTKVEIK
-- reply ~0.6 nM

-- ask Which EC50 (read off the curve) reading was recorded for the binder SB1901-82 (antibody, V domains shown, humanized version of 51B5; also called SB1901-82 humanized anti-TNFR2 antibody) VH: QVQLVQSGAEVKKPGASVKVSCKASGYTFTDDYIDWVRQAPGQGLEWMGEIYPGSGNTYYNEKFKGRVTMTRDTSTSTVYMELSSLRSEDTAVYYCARSQVYGKIAMDHWGQGTLVTVSS VL: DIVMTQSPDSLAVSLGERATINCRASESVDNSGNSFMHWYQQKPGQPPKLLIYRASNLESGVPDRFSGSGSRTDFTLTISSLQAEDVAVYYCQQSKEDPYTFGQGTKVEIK ?
-- reply ~0.6 nM
